test system: binding of CTLA-4Ig to B7 on Cess B cells; test: CTLA-4Ig/B7 binding assay on Cess B cells by FACS; conditions: FACS; assays of 3/24, 3/25, 4/5, 4/25; one symbol per assay
Bridge positions count the residues as written; N and C are the ends. Ends that are not written are not given here.
quantity measured: Binding Assay (effect on CTLA-4Ig binding to Cess B cells)

Worked cases, Binding Assay (effect on CTLA-4Ig binding to Cess B cells) given:
{"substance": "CMYPPPYGKC (disulfide 1-10 (inferred)) [AT 110.1]", "result": "−, −"}
{"substance": "LDSAVEV [AT 116.1]", "result": "−"}
{"substance": "RKCLGYPPPYYCHH (not fully specified (bridges); cysteine pairing not given here) [AT 201.1]", "result": "−, −, −"}
{"substance": "NECTFCDD (not fully specified (bridges); cysteine pairing not given here) [AT 197.1]", "result": "−, −, −"}
{"substance": "KYLVKQS [AT 120.1]", "result": "−"}

Consider now this further substance.
input: Need Binding Assay (effect on CTLA-4Ig binding to Cess B cells), item CSSGNQVC (disulfide 1-8 (inferred)) [AT 132.1]
output: +, −

----------
system: binding of CTLA-4Ig to B7 on Cess B cells; test: CTLA-4Ig/B7 binding assay on Cess B cells by FACS; conditions: FACS; assays of 3/24, 3/25, 4/5, 4/25; one symbol per assay
Bridge positions count the residues as written; N and C are the ends. Ends that are not written are not given here.
quantity measured: Binding Assay (effect on CTLA-4Ig binding to Cess B cells)

{"seq text": "CKIEVMYPPPYC (disulfide 1-12 (inferred)) [AT 113.1]", "result": "−, −"}
{"seq text": "CKIEVMYPPPYLC (disulfide 1-13 (inferred)) [AT 114.1]", "result": "Toxic"}

----------
system: binding of CTLA-4Ig to B7 on Cess B cells; experiment: CTLA-4Ig/B7 binding assay on Cess B cells by FACS; set-up: key: −: no change in binding; +: a minor change of <10% in binding; ++: a change of >20% in binding; conditions: FACS; assays of 3/24, 3/25, 4/5, 4/25; one symbol per assay
Bridge positions count the residues as written; N and C are the ends. Ends that are not written are not given here.
quantity measured: Binding Assay (effect on CTLA-4Ig binding to Cess B cells)

Worked cases, Binding Assay (effect on CTLA-4Ig binding to Cess B cells) given:
{"substance": "CMYPPQYGKC (disulfide 1-10 (inferred)) [AT 111.1]", "target entity": "binding of CTLA-4Ig to B7 on Cess B cells", "result": "−"}
{"substance": "CMYPPYLRGGKC (disulfide 1-12 (inferred)) [AT 109.1]", "target entity": "binding of CTLA-4Ig to B7 on Cess B cells", "result": "−, +"}
{"substance": "CKGLDSAVEC (disulfide 1-10 (inferred)) [AT 108.1]", "target entity": "binding of CTLA-4Ig to B7 on Cess B cells", "result": "−"}
{"substance": "CSKTGFNC (disulfide 1-8 (inferred)) [AT 115.1]", "target entity": "binding of CTLA-4Ig to B7 on Cess B cells", "result": "−"}
{"substance": "KYLVKQS-OH [AT 122.1]", "target entity": "binding of CTLA-4Ig to B7 on Cess B cells", "result": "+, −"}

input: Need Binding Assay (effect on CTLA-4Ig binding to Cess B cells), item KILVKQS [AT 119.1]
output: −

input: Next: ADSQVTEV-OH [AT 124.1]
output: +, −

input: Next: HVEQPA-OH [AT 125.1]
output: −, +

input: Next: CMYPPPYKAKC (disulfide 1-11 (inferred)) [AT 112.1]
output: −, −

input: Next: CMYPPPYYKAKC (disulfide 1-12 (inferred)) [AT 130.1]
output: −, −

input: Next: CSSPNQVC (disulfide 1-8 (inferred)) [AT 133.1]
output: ++, −
